Quick reference: viability, T/C of the listed items.
Test system: KRAS patient-derived spheroids with HUVEC/MSC, viability;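 also: spheroids exposed to agents for seven days before readout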
Test: Anticancer human tumor 941728-121-R-J1-PDC patient-derived lung adenocarcinoma cell line growth inhibition [KRAS2]
Conditions: second compound 0.1 µM; first compound 1 µM; active compounds read low

compound	viability, T/C [%]
O=C(c1cc(Cc2n[nH]c(=O)c3ccccc23)ccc1F)N1CCN(C(=O)C2CC2)CC1 + COc1cc2nc(C)nc(NC(C)c3cc(N)cc(C(F)(F)F)c3)c2cc1OC1CCOC1	93.4
CCNC(=O)CC1N=C(c2ccc(Cl)cc2)c2cc(OC)ccc2-n2c(C)nnc21 (stereo not given) + C=CC(=O)N1CCN(c2nc(=O)n(-c3c(C)ccnc3C(C)C)c3nc(-c4c(O)cccc4F)c(F)cc23)C(C)C1	14.3
CCNC(=O)CC1N=C(c2ccc(Cl)cc2)c2cc(OC)ccc2-n2c(C)nnc21 (stereo not given) + C=CC(=O)N1CCN(c2nc(OCC3CCCN3C)nc3c2CCN(c2cccc4cccc(C)c24)C3)CC1CC#N	16.4
CC(C)NCC(C(=O)N1CCN(c2ncnc3c2C(C)CC3O)CC1)c1ccc(Cl)cc1 (stereo not given) + COc1cc2nc(C)nc(NC(C)c3cc(N)cc(C(F)(F)F)c3)c2cc1OC1CCOC1	23.4
CC(C)NCC(C(=O)N1CCN(c2ncnc3c2C(C)CC3O)CC1)c1ccc(Cl)cc1 (stereo not given) + CNCc1ccccc1-c1csc(C(C)Nc2nc(C)nc3cc(OC)c(OC)cc23)c1	33.3
